Molecular target: CB1 receptors (mouse brain membranes) (Mus musculus, UniProt P47746)
Construct: membranes prepared from healthy brain tissue, which is densely populated with CB1 but not CB2 receptors; from tissue; host or cells: mouse brain membranes
Sequence (P47746 whole entry): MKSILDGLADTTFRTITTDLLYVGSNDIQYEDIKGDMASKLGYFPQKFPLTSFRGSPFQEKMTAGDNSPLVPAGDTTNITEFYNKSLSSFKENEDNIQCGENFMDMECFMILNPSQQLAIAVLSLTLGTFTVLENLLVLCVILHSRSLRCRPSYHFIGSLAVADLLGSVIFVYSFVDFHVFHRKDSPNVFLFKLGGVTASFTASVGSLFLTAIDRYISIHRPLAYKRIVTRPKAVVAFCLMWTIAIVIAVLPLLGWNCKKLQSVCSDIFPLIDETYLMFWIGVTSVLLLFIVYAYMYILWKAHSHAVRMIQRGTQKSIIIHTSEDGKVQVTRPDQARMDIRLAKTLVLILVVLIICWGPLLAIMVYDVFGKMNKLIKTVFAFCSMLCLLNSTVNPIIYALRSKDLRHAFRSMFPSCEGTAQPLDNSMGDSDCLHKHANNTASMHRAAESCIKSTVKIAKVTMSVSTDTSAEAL
Assay: Radioligand displacement assay, mouse brain membranes
Type: binding
Conditions: mean EC50, displacement of [3H]R-(+)-WIN55212, mouse brain membranes; n=4 to 7
Protocol: Experiments were performed with membranes prepared from healthy brain tissue, which is densely populated with CB1 but not CB2 receptors (reviewed in Howlett et al. 2002). […] Each reaction tube was washed six times with a 1.2 ml aliquot of wash buffer. […] Radioactivity was quantified by liquid scintillation spectrometry. […] Values are expressed as means and variability as s.e.mean or as 95% confidence limits. […] Its dissociation constant (Ki value) was calculated using the equation of Cheng & Prusoff (1973).
ATTRIBUTE MEASURED: EC50 (nM)

- MOLECULE: "CCCc1cc(O)c2c(c1)OC(C)(C)[C@@H]1CCC(C)=C[C@@H]21 [THCV, tetrahydrocannabivarin]"
  ATTRIBUTE MEASURED: "EC50"
  DISPLAY UNIT: "nM"
  MEASURED VALUE: 61.3
